# Test system: Staphylococcus aureus
# assay name: Antibacterial activity against Staphylococcus aureus ATCC 6538P incubated for 24 hrs by broth microdilution method
# Type: functional
readout type: MIC (µg/mL)
Give the value, in units of µg/mL, as a plain number.

Solved cases below.
structure string	readout type	unit	reported value
C/C(=N\NC(=N)N)c1sc(N/N=C/c2cccc(O)c2)nc1C	MIC	µg/mL	8
C/C(=N\NC(=N)N)c1sc(N/N=C/c2cc(F)ccc2F)nc1C	MIC	µg/mL	8
COc1ccc(-c2ccc(/C=N/Nc3nc(C)c(/C(C)=N/NC(=N)N)s3)cc2)cc1	MIC	µg/mL	32

Ask | Tell me MIC reported for C/C(=N\NC(=N)N)c1sc(N/N=C/c2ccc(-c3ccc(F)cc3)cc2)nc1C
Reply | 4

Ask | Tell me MIC reported for C/C(=N\NC(=N)N)c1sc(N/N=C/c2cccc(F)c2F)nc1C
Reply | 16

Ask | Tell me MIC reported for C/C(=N\NC(=N)N)c1sc(N/N=C/c2ccc(O)cc2)nc1C
Reply | 32

Ask | Tell me MIC reported for C/C(=N\NC(=N)N)c1sc(N/N=C/c2ccccc2O)nc1C
Reply | 32

Ask | Tell me MIC reported for C/C(=N\NC(=N)N)c1sc(N/N=C/c2cc(O)cc(O)c2)nc1C
Reply | 32

Ask | Tell me MIC reported for C/C(=N\NC(=N)N)c1sc(N/N=C/c2ccc(N3CCCC3)cc2)nc1C
Reply | 32

Cited source: ChEMBL document CHEMBL5335839
